Target: cloned human H3 receptor (Homo sapiens)
Sequence (Q9Y5N1 whole entry): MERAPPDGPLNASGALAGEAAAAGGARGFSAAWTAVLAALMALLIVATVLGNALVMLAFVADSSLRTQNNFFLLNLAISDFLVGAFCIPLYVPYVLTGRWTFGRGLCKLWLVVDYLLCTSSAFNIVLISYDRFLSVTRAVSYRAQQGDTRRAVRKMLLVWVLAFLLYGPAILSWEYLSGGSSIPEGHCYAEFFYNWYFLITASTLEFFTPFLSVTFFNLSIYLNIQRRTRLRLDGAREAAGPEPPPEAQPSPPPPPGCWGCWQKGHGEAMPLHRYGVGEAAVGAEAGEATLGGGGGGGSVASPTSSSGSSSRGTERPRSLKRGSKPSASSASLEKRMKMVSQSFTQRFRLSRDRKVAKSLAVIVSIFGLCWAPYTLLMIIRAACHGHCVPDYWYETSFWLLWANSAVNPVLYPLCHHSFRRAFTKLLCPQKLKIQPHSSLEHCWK
pKi: −log10 of the molar value.
readout_label: pKi

1) CNCc1cc(N2CCC(N3CCOCC3)CC2)ccc1Oc1ccc(SC)cc1 [Example 51]    7.55
2) CNCc1cc(N2CCCN(C(C)C)CC2)ccc1Oc1ccc(SC)cc1 [Example 52]    8.10
3) CNCc1cc(N2CCN(C3CC3)CC2)ccc1Oc1ccc(SC)cc1 [Example 45]    7.12
4) CNCc1cc(N2CCNCC2=O)ccc1Oc1ccc(SC)cc1 [Example 48]    5.26
5) CNCc1cc(N2CCCN(C(C)C)CC2)ccc1Oc1ccc(Cl)c(Cl)c1 [Example 55]    7.57
6) O=C(c1ccc(CN2CCCCC2)c(Oc2cccnc2)c1)N1CCN(C2CC2)CC1 [Example 34]    8.52
7) CC(C)N1CCN(C(=O)c2ccc(CN3CCCCC3)c(Oc3cccnc3)c2)CC1 [Example 33]    8.70
8) CNCc1ccc(C(=O)N2CCN(C3CC3)CC2)cc1Oc1ccc(Cl)c(Cl)c1 [Example 39]    7.82
9) CNCc1cc(C(=O)N2CCN(C3CCC3)CC2)ccc1Oc1cccc(Cl)c1 [Example 72]    8.40
10) CN(C)Cc1ccc(C(=O)N2CCN(C3CC3)CC2)cc1OCc1ccccc1 [Example 81]    7.17

P: CNCc1cc(C(=O)N2CC[C@H](N(C)C)C2)ccc1Oc1ccc(SC)cc1 [Example 25]
Q: CNCc1cc(N2CCN(C(C)C)CC2)ccc1Oc1ccc(Cl)c(Cl)c1 [Example 47]
Qu. Two entries are listed, P and Q . Which one carries the higher pKi? # respond with the chosen item's label
Ans. P

###

Biological target: human H3 receptor (Homo sapiens)
Sequence (Q9Y5N1 whole entry): as above
Assay: Cyclic AMP Accumulation (reporter gene, SK-N-MC cells)
Kb values for the molecules below.
Provide the reading as a plain figure in nM.

Here's what some known entries look like.
1) CNCc1cc(N2CCN(C(C)C)CCC2=O)ccc1Oc1ccc(Cl)c(Cl)c1    4.47
2) CC(C)N1CCN(C(=O)c2ccc(CNC3CC3)c(Oc3cccnc3)c2)CC1    0.794
3) O=C(c1ccc(CNC2CC2)c(Oc2cccnc2)c1)N1CCN(C2CC2)CC1    1.58
4) CNCc1cc(N2CCN(C(C)C)CCC2=O)ccc1Oc1ccc(SC)cc1    2
5) O=C(c1ccc(CN2CCCCC2)c(Oc2cccnc2)c1)N1CCN(C2CC2)CC1    1.26

Qu. Look up Kb: CNCc1ccc(C(=O)N2CCN(C(C)C)CC2)cc1Oc1ccc(Cl)cc1
Ans. 6.31

Qu. For CC(C)N1CCN(C(=O)c2ccc(CN3CCCCC3)c(Oc3cccnc3)c2)CC1 , what is its reported Kb?
Ans. 0.316

Qu. Which measured Kb value corresponds to CN(C)C1CCN(C(=O)c2ccc(CN3CCCCC3)c(Oc3cccnc3)c2)C1 (centres unmarked) ?
Ans. 2.51

###

Target: Rat SERT (Rattus norvegicus, UniProt P31652)
Sequence (P31652 whole entry): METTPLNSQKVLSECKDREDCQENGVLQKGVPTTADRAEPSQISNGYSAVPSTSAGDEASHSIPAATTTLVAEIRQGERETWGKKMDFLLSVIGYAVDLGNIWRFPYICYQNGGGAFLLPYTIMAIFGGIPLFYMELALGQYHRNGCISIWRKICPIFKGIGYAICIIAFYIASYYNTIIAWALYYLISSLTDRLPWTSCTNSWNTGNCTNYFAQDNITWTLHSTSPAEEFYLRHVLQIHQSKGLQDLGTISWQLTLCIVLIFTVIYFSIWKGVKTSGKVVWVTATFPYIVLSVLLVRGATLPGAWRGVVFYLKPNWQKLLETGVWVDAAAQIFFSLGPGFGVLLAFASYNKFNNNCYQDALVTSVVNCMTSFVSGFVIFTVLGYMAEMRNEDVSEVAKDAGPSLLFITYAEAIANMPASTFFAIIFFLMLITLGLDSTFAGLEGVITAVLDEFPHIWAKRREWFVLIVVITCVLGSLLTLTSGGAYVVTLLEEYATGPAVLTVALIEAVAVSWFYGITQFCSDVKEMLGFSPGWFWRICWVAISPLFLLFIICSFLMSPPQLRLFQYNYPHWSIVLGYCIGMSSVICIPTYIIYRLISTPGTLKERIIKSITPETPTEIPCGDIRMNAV
Assay: biochemical
pKi: −log10 of the molar value.
readout_label: pKi

// solved cases for pKi follow
1. CNCc1ccc(C(=O)N2CCN(C(C)C)CC2)cc1Oc1cccc(Cl)c1    6.89
2. CNCc1cc(C(=O)N2CCN(C3CCC3)CC2)ccc1Oc1cccc(Cl)c1    7.19
3. Cc1ccc(Oc2cc(C(=O)N3CCN(C4CC4)CC3)ccc2CN(C)C)c(C)n1    6.30
4. CNCc1ccc(C(=O)N2CCN(C3CC3)CC2)cc1Oc1ccc(Cl)c(Cl)c1    7.77
5. CNCc1cc(C(=O)N2CCN(C3CC3)CC2)ccc1Oc1ccc(Cl)cc1F    7.68
6. CNCc1cc(C(=O)N2CCN(C3CC3)CC2)ccc1Oc1ccc(F)c(Cl)c1    7.72
7. CNCc1cc(N2CCCN(C(C)C)CC2)ccc1Oc1ccc(Cl)c(Cl)c1    8.00
8. CNCc1cc(C(=O)N2CCN(C3CC3)CC2)ccc1OCc1ccc(Cl)c(Cl)c1    8.40

P: CNCc1cc(N2CCN(C3CC3)CC2)ccc1Oc1ccc(Cl)c(Cl)c1
Q: CNCc1ccc(C(=O)N2CCN(C(C)C)CC2)cc1Oc1ccc(Cl)c(Cl)c1
Qu. Of the two listed items, which has the higher pKi? First: P Second: Q Indicate your choice by writing its label.
Ans. Q

A: CNCc1cc(CN2CCN(C3CCC3)CCC2=O)ccc1Oc1ccc(Cl)c(Cl)c1
B: CNCc1cc(C(=O)N2CCN(C(C)C)CC2)ccc1Oc1cccnc1
C: CNCc1cc(N2CCC(N3CCOCC3)CC2)ccc1Oc1ccc(SC)cc1
D: CN(C)Cc1ccc(C(=O)N2CCN(C3CC3)CC2)cc1OCc1ccccc1
Qu. Sort ascending by pKi. Would you mind listing the labels in the order requested?
Ans. D, B, A, C
(D: 5.10, B: 6.80, A: 8.30, C: 8.70)

I: CNCc1cc(N2CC[C@H](N(C)C)C2)ccc1Oc1ccc(SC)cc1
II: CSc1ccc(Oc2ccc(CN3CCN(C(C)C)CC3)cc2CNC2CC2)cc1
III: CNCc1cc(N2CCN(C(C)C)CC2)ccc1Oc1ccc(SC)cc1
Qu. Endpoint returns the given molecules ordered by ascending pKi. Please reply with the labels ordered as requested. Many thanks.
Ans. I, II, III
(I: 8.22, II: 8.52, III: 10.00)

P: CNCc1cc(CN2CCN(C(C)C)CCC2=O)ccc1Oc1ccc(Cl)c(Cl)c1
Q: CNCc1cc(N2CCN(C(C)C)CC2=O)ccc1Oc1ccc(SC)cc1
Qu. # min-compare on pKi between P and Q Please indicate the selected item by its label.
Ans. P
(P: 8.40, Q: 8.70)
